Tested on: cynomolgus monkeys with sustained elevated IOP
Experiment: IOP lowering in conscious monkeys, eyes made hypertensive by argon laser photocoagulation
Type: in vivo, cynomolgus monkey
Conditions: Macaca fascicularis, topical; ocular dose 1%, single 50 μl eye drop, up to 6 hours; read-out: Maximum % Decrease From Pretreatment Levels Hypertensive Eye (IOP)
measured-parameter: inhibition in vivo at 1 % (%)
The reply should contain only the number, in %.

Worked cases, inhibition in vivo at 1 % given:
Clc1ccc(Cc2c[nH]cn2)s1 [Example C-4]
29.3
c1nc(CC2CCc3sccc3C2)c[nH]1 (centres unmarked) [Example B-9a]
26.8
Cc1ccc(Cc2c[nH]cn2)s1 [Example C-3]
25
c1ccc(C2C3CCC(C3)C2/N=C2/NCCO2)cc1 [Example D-1]
25.6
c1nc(Cc2ccsc2)c[nH]1 [Example C-1, 4(5)-thiophen-3-ylmethyl-1H-imidazole]
25

Q) Identify measured inhibition in vivo at 1 % associated with c1ccc(Cc2c[nH]cn2)cc1 [Example C-8, 4(5)-benzyl-1H-imidazole]
A) 31.2

Q) Give the reported inhibition in vivo at 1 % for this compound. c1ccc2sc(Cc3c[nH]cn3)cc2c1 [Example C-9]
A) 25.1

Q) Report inhibition in vivo at 1 % for c1csc(Cc2c[nH]cn2)c1 [Example C-2, 4(5)-thiophen-2-ylmethyl-1H-imidazole]
A) 29.6

====

Test system: conscious cynomolgus monkeys
Assay: Sedation score during the IOP experiments
Format: in vivo, cynomolgus monkey
Parameters: key: 0=alert, typical vocalization, movement, etc.; 1=calm, less movement; 2=slightly sedated, some vocalization, responsive to stimulation; 3=sedated, no vocalization, some response to stimulation; 4=asleep
Settings: ocular dose 0.3%
Recorded Sedation (0-4) for the following compounds
Keep the answer to the number alone.

c1nc(CC2CCc3sccc3C2)c[nH]1 (centres unmarked)
0
c1ccc2c(c1)CCC(Cc1c[nH]cn1)C2 (centres unmarked)
0
c1ccc2c(c1)CC(Cc1c[nH]cn1)CO2 (centres unmarked)
0
Clc1cccc(Cl)c1N=C1NCCN1 [clonidine, reference compound]
2

Could you now look at the following compound, please?
Q) Supply recorded Sedation (0-4) for Cl.O=C1c2ccsc2CCC1Cc1c[nH]cn1 (centres unmarked) here.
A) 0

====

Recorded Maximum % Decrease From Pretreatment Levels, Heart Rate, one value per entry.
System: conscious cynomolgus monkeys
Experiment: Cardiovascular side effects (blood pressure, heart rate) after i.v. administration
Type: in vivo, cynomolgus monkey
Conditions: i.v. 500 μg/kg, up to 6 hours; + with * = increase from base levels
Report only the number, with the unit % understood.

Use the examples below as a reference point.
c1coc(Cc2c[nH]cn2)c1
7.1
c1ccc2c(c1)CC[C@H](Cc1c[nH]cn1)C2
6.4
Cc1ccc(Cc2c[nH]cn2)o1
6.1
Clc1ccc(Cc2c[nH]cn2)s1
10.9

Would you kindly look at the next entry?
Q) Report the value of Maximum % Decrease From Pretreatment Levels, Heart Rate obtained on conscious cynomolgus monkeys for c1ccc2sc(Cc3c[nH]cn3)cc2c1 .
A) 5.9

====

Target: rat α2B (RNG gene) receptor (Rattus norvegicus, UniProt P19328)
Construct: expressed in transfected cells; host or cells: NIH-3T3 cells, calcium phosphate cotransfection
Sequence (P19328 1-453): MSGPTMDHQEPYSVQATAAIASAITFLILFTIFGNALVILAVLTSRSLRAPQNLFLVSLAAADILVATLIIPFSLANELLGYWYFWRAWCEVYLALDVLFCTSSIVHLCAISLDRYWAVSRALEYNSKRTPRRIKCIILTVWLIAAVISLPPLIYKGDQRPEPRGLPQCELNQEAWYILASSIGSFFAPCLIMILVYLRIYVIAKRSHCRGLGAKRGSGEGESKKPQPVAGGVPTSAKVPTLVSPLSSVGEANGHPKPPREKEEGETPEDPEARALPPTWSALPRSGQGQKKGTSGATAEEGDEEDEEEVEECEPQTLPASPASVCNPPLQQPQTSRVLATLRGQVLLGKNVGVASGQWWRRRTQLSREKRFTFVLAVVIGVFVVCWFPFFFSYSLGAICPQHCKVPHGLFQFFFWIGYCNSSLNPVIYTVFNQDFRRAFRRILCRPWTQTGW
Test: RSAT (Receptor Selection and Amplification Technology) assay, alpha 2B
Type: cell-based
Conditions: ratio of maximal effect to that of standard full agonist oxymetazoline
measured-parameter: Intrinsic Activity Relative to Oxymetazoline, Alpha 2B
Give a plain numeric answer without units written out.

Answered cases to consult:
C1CO/C(=N\C2CC3CCC2C3)N1 (stereo not shown)
0.4
Cc1ccc2c(c1)C(=O)C(Cc1c[nH]cn1)CC2 (stereo not shown)
0.4
c1ccc2c(c1)CCCC2Cc1c[nH]cn1 (stereo not shown)
0.6
Cc1c(N=C2NCCN2)ccc2c1NC(=O)CO2
0.9
c1nc(Cc2ccsc2)c[nH]1
0.83

Q) Provide only the value of recorded Intrinsic Activity Relative to Oxymetazoline, Alpha 2B for C1=C(Cc2c[nH]cn2)COc2ccccc21
A) 0.5

Q) Please list Intrinsic Activity Relative to Oxymetazoline, Alpha 2B recorded for the compound O=C1/C(=C/c2c[nH]cn2)CCc2ncccc21
A) 0.87

Q) Read the entry O=C1c2ccccc2CC1Cc1c[nH]cn1 (stereo not shown) and write its reported Intrinsic Activity Relative to Oxymetazoline, Alpha 2B.
A) 0.3

Q) Quick one: give measured Intrinsic Activity Relative to Oxymetazoline, Alpha 2B for O=C1/C(=C\c2c[nH]cn2)CCc2ncccc21
A) 0.75

Q) Output Intrinsic Activity Relative to Oxymetazoline, Alpha 2B of CC1=C(Cc2c[nH]cn2)COc2ccccc21
A) 0.6

====

// values below are reported Maximum % Decrease From Pretreatment Levels, Heart Rate
System: conscious cynomolgus monkeys
Assay: Cardiovascular side effects (blood pressure, heart rate) after i.v. administration
Assay type: in vivo, cynomolgus monkey
Settings: i.v. 50 μg/kg, up to 6 hours; + with * = increase from base levels
Respond with a number, then the unit of measure.

Example molecules with recorded Maximum % Decrease From Pretreatment Levels, Heart Rate:
Cc1ccsc1Cc1cnc[nH]1 [reference compound]
23 ± 4%
c1nc(Cc2ccsc2)c[nH]1
12 ± 4%

The record that follows has no Maximum % Decrease From Pretreatment Levels, Heart Rate shown yet.
Q) Answer briefly: Maximum % Decrease From Pretreatment Levels, Heart Rate recorded on conscious cynomolgus monkeys for c1ccc2sc(Cc3c[nH]cn3)cc2c1
A) 16 ± 3.2%

====

System: conscious cynomolgus monkeys
Assay: Cardiovascular side effects (blood pressure, heart rate) after i.v. administration
Assay type: in vivo, cynomolgus monkey
Details: i.v. 500 μg/kg, up to 6 hours; + with * = increase from base levels
# key: entry, value: Maximum % Decrease From Pretreatment Levels, Mean Arterial Blood Pressure
Report the figure in % without appending any unit label.

Solved cases (8 shown):
c1csc(Cc2c[nH]cn2)c1 [Example C-2, 4(5)-thiophen-2-ylmethyl-1H-imidazole]
6.6
c1nc(CC2CCCCC2)c[nH]1 [Example J-1, 4(5)-cyclohexylmethyl-1H-imidazole]
13
Cc1ccc(Cc2c[nH]cn2)s1 [Example C-3]
2.3
c1coc(Cc2c[nH]cn2)c1 [Example C-5, 4(5)-furan-2-ylmethyl-1H-imidazole]
3.9
c1ccc(Cc2c[nH]cn2)cc1 [Example C-8, 4(5)-benzyl-1H-imidazole]
5.5
O=C1c2ccccc2OCC1Cc1c[nH]cn1 (stereo not shown) [Example B-2b]
5.7
Cl.O=C1c2ccsc2CCC1Cc1c[nH]cn1 (stereo not shown) [Example B-9b]
2.8
Cc1[nH]cnc1Cc1ccc2c(c1)OCCO2 [M]
0.8

Q) Name the recorded Maximum % Decrease From Pretreatment Levels, Mean Arterial Blood Pressure of the molecule listed here: Cc1ccc(Cc2c[nH]cn2)o1 [Example C-7]
A) 3.0

Q) Consider the molecule c1ccc2sc(Cc3c[nH]cn3)cc2c1 [Example C-9] and give its recorded Maximum % Decrease From Pretreatment Levels, Mean Arterial Blood Pressure.
A) 6.0

Q) # return recorded Maximum % Decrease From Pretreatment Levels, Mean Arterial Blood Pressure for input Clc1ccc(Cc2c[nH]cn2)s1 [Example C-4]
A) 5.3

====

Molecular target: rat α2B (RNG gene) receptor (Rattus norvegicus)
Construct: expressed in transfected cells; host or cells: NIH-3T3 cells, calcium phosphate cotransfection
Test: RSAT (Receptor Selection and Amplification Technology) assay, alpha 2B
Type: cell-based
Conditions: ratio of maximal effect to that of standard full agonist oxymetazoline
Measured Intrinsic Activity Relative to Oxymetazoline, Alpha 2B accompanies every entry in the list below.
Give only the figure.

Solved entries (count: 3):
c1nc(CC2CCCCC2)c[nH]1
0.83
CCC1=CC(Cc2c[nH]cn2)CC1 (stereo not shown)
0.75
C1=NC(CC2CCc3ccccc3C2)CN1 (stereo not shown)
0.5

Q) Could you please provide reported Intrinsic Activity Relative to Oxymetazoline, Alpha 2B for O=C1c2ccccc2CCC1Cc1c[nH]cn1 (stereo not shown) ? Thanks!
A) 0.8

Q) Dear colleague, please send me the reported Intrinsic Activity Relative to Oxymetazoline, Alpha 2B for c1ccc(Cc2c[nH]cn2)cc1 when you can.
A) 0.9

Q) Note down Intrinsic Activity Relative to Oxymetazoline, Alpha 2B recorded for O=C1c2cccnc2CCC1Cc1c[nH]cn1 (stereo not shown)
A) 0.9
